- System: 786-0
- test summary: NCI tumour cell line growth inhibition, 48 h
Calls of active or inactive are those of the source. Cut-off read from the data, not from the text of the source: active = GI50 up to about 1.1 µM and inactive = higher.
Classes used: active, inactive

>  <molecule>
Cc1ccc(S(=O)(=O)NNC(=O)Nc2ccc([N+](=O)[O-])cc2)cc1

>  <label value>
inactive

$$$$
>  <molecule>
Cc1c(C)n(-c2ccccc2)c2nc([S+](C)[O-])nc([S+](C)[O-])c12 (configuration not stated)

>  <label value>
inactive

$$$$
>  <molecule>
CC(C)(C)OC(=O)NC(Cc1ccccc1)C(=S)N1CCCC1 (configuration not stated)

>  <label value>
inactive

$$$$
>  <molecule>
CC1(C)C(O)c2ccccc2OC1N1CCN(C2Oc3ccccc3C(O)C2(C)C)CC1 (configuration not stated)

>  <label value>
inactive

$$$$
>  <molecule>
CC(=O)OC(CCC1(C)OC1COc1ccc(CCNC(=O)c2ccccc2)cc1)C(C)(C)OC(C)=O (configuration not stated)

>  <label value>
inactive

$$$$
>  <molecule>
Cc1ccsc1/C=N/Nc1cc(C)c2ccccc2n1

>  <label value>
inactive

$$$$
>  <molecule>
COC(=O)[C@H](Cc1c[nH]c2ccccc12)NC(=O)c1ccc(CNC(=O)/C(C)=C/c2ccccc2)cc1

>  <label value>
inactive

$$$$
>  <molecule>
COc1ccc(Cn2nc(OCc3ccccn3)c3cc([N+](=O)[O-])ccc32)cc1

>  <label value>
inactive

$$$$
>  <molecule>
O=C(O)C(F)(F)C(F)(F)C(F)(F)C(F)(F)C(=O)O

>  <label value>
inactive

$$$$
>  <molecule>
CCCCCCCCCCNC(=S)OC

>  <label value>
inactive

$$$$
>  <molecule>
CNCCN[C@@H]1c2cc3c(cc2[C@@H](c2cc(OC)c(O)c(OC)c2)[C@H]2C(=O)OC[C@@H]21)OCO3

>  <label value>
active

$$$$
>  <molecule>
COc1ccc(/C=C/C=C2C(=O)NC(=S)NC2=O)cc1

>  <label value>
inactive

$$$$
>  <molecule>
CN(CCCCN)c1ccc2c(=O)[nH][nH]c(=O)c2c1

>  <label value>
inactive

$$$$
>  <molecule>
Cc1ccc(/C=C2\N=C(N3CCOCC3)NC2=O)cc1

>  <label value>
inactive

$$$$
>  <molecule>
O=C1Cc2c([nH]c3c(Cl)cccc23)-c2ccccc2N1

>  <label value>
inactive

$$$$
>  <molecule>
O=C1NC2C(CCO)CC=C[C@H]2c2cc3c(cc21)OCO3 (some centres not stated)

>  <label value>
inactive

$$$$
>  <molecule>
CCN(CC)CCC1CC/C(=C\c2ccc(OC)cc2)C1=O (configuration not stated)

>  <label value>
inactive

$$$$
>  <molecule>
CC(C)(C)NC(=O)C12C3C4C1C1C2C3C41I (configuration not stated)

>  <label value>
inactive

$$$$
>  <molecule>
O=C(O)c1nnsc1-c1csnn1

>  <label value>
inactive

$$$$
>  <molecule>
CCOC(=O)c1sc2ncnc(N)c2c1C

>  <label value>
inactive

$$$$
>  <molecule>
CC(=O)CSc1c(-c2ccccc2)c(=O)n(-c2ccccc2)c(=S)n1-c1ccccc1

>  <label value>
inactive

$$$$
>  <molecule>
C=C1CCC([N+](=O)[O-])[C@](C)(N=O)CC[C@@H]2C1CC2(C)C (some centres not stated)

>  <label value>
inactive

$$$$

* * *

- Tested on: SK-MEL-2
- test summary: NCI tumour cell line growth inhibition, 48 h
The source made the active and inactive calls. No stated cut-off is given here; in the data, active = GI50 up to about 1.1 µM and inactive = higher.
Classes used: active, inactive

>  <molecule>
O=C1NC(N2CCCCC2)=N/C1=C\c1ccco1

>  <measured target>
SK-MEL-2

>  <label value>
inactive

$$$$
>  <molecule>
COc1ccc(-c2cc3ccccc3oc2=O)cc1OC

>  <measured target>
SK-MEL-2

>  <label value>
inactive

$$$$
>  <molecule>
O=C1OC(c2ccccc2)(c2ccccc2)c2ccc3ccc(F)cc3c21

>  <measured target>
SK-MEL-2

>  <label value>
inactive

$$$$
>  <molecule>
Cc1cn([C@H]2C[C@](C)(CO)N(C)O2)c(=O)[nH]c1=O

>  <measured target>
SK-MEL-2

>  <label value>
inactive

$$$$
>  <molecule>
FC(F)(F)c1nc2nc(Cl)c(Cl)nc2n1CCCN1CCOCC1

>  <measured target>
SK-MEL-2

>  <label value>
inactive

$$$$
>  <molecule>
O=C1C=CC2(C=C1)O[C@H](Cc1ccccc1)[C@@H](Cc1ccccc1)O2

>  <measured target>
SK-MEL-2

>  <label value>
inactive

$$$$
>  <molecule>
Oc1cc(-c2cccc(OC(F)(F)F)c2)nc2cc3c(cc12)OCO3

>  <measured target>
SK-MEL-2

>  <label value>
active

$$$$
>  <molecule>
C=C1C(=O)O[C@H]2C3C(=C(C)CC[C@@H]12)C(=O)[C@@H]1OC31C (stereo partly specified)

>  <measured target>
SK-MEL-2

>  <label value>
inactive

$$$$
>  <molecule>
CN(C)/N=N/c1nc2c(c(=O)n(C)c(=O)n2C)n1CC(O)CO (stereo unspecified)

>  <measured target>
SK-MEL-2

>  <label value>
inactive

$$$$
>  <molecule>
N#C/C(=C\c1ccc(F)cc1)c1nc(-c2cc3ccccc3oc2=O)cs1

>  <measured target>
SK-MEL-2

>  <label value>
inactive

$$$$
>  <molecule>
FC(F)(F)C1(C(F)(F)F)OC(Cl)(Cl)C(Cl)(Cl)O1

>  <measured target>
SK-MEL-2

>  <label value>
inactive

$$$$

* * *

- Test system: SK-MEL-2
- test summary: NCI tumour cell line growth inhibition, 48 h
Calls of active or inactive are those of the source. Cut-off read from the data, not from the text of the source: active = GI50 up to about 1.1 µM and inactive = higher.
Classes used: YES (active), NO (inactive)

>  <compound>
COc1ccc(OC)c(C(=O)c2cccc(C(=O)c3cc(OC)ccc3OC)n2)c1

>  <label value>
NO

$$$$
>  <compound>
CN(Cc1ccccc1)/C(=N\C#N)N(Cc1ccccc1)Cc1ccccc1

>  <label value>
NO

$$$$
>  <compound>
CNCCN[C@@H]1c2cc3c(cc2[C@@H](c2cc(OC)c(O)c(OC)c2)[C@H]2C(=O)OC[C@@H]21)OCO3

>  <label value>
YES

$$$$
>  <compound>
O=C1c2ccccc2C(=O)c2c1cc(S(=O)(=O)O)c(O)c2O

>  <label value>
NO

$$$$
>  <compound>
N#CCc1nc(-c2cc3c(ccc4ccccc43)oc2=O)cs1

>  <label value>
NO

$$$$
>  <compound>
CCC(=O)NCCc1c2c3c(ccnc3c3ncsc13)-c1ccccc1N2

>  <label value>
NO

$$$$
>  <compound>
O=C(O)c1[nH]c(=O)[nH]c(=O)c1CN1CCCCC1

>  <label value>
NO

$$$$
>  <compound>
C=C[C@@]1(O)CCCC2=C(C(=O)OCC)CC[C@]21C

>  <label value>
NO

$$$$
>  <compound>
O=C(c1cccs1)N1CCN(C(=O)c2cccs2)C1=S

>  <label value>
NO

$$$$
>  <compound>
CCCNC1=C2CC(C)CC(OC)[C@@H](O)[C@H](C)/C=C(\C)C(OC(N)=O)C(OC)/C=C\C=C(/C)C(=O)NC(=CC1=O)C2=O (stereo not given in full)

>  <label value>
YES

$$$$

* * *

- Test system: XF498
- test summary: NCI tumour cell line growth inhibition, 48 h
The source made the active and inactive calls. No stated cut-off is given here; in the data, active = GI50 up to about 1.1 µM and inactive = higher.
Classes used: active, inactive

>  <compound>
CC(C)c1cccc2sc(NC(=O)C(=O)CC(=O)c3ccc(F)cc3)nc12

>  <label value>
inactive

$$$$
>  <compound>
Cc1cc(N(CCC#N)CCC#N)ccc1/C=C1/N=C(c2ccccc2)N(N)C1=O

>  <label value>
inactive

$$$$
>  <compound>
CC(N)C(C)c1ccccc1 (stereo unspecified)

>  <label value>
inactive

$$$$
>  <compound>
CC1=NN(c2ccccc2)C(=O)C1/N=N/c1ccc(Br)c(C)c1 (stereo unspecified)

>  <label value>
inactive

$$$$
>  <compound>
Cc1cc(C)nc(NS(=O)(=O)c2ccc(NC(=O)c3cccc4c(=O)c5ccccc5[nH]c34)cc2)n1

>  <label value>
inactive

$$$$
>  <compound>
CCCC1C(=O)CCc2c(OC)ccc(OC)c21 (stereo unspecified)

>  <label value>
inactive

$$$$
>  <compound>
CC(C)(C)C1CCC2c3c([nH]c4ncccc34)C3C(=O)N(c4ccccc4)C(=O)C3C2C1 (stereo unspecified)

>  <label value>
inactive

$$$$
>  <compound>
N#C/C(=C\c1ccc(CP(=O)(O)O)cc1)C(N)=O

>  <label value>
inactive

$$$$
>  <compound>
O=C1OC(c2ccccc2)(c2ccccc2)c2ccc3ccc(F)cc3c21

>  <label value>
inactive

$$$$
>  <compound>
CCCCc1c2c(nc3c1CCCC3=O)C(=O)CCC2

>  <label value>
inactive

$$$$
>  <compound>
CC[N+](CC)(CC)Cc1cn(S(=O)(=O)c2ccccc2)c2ccccc12

>  <label value>
inactive

$$$$
>  <compound>
COc1ccc([C@@H]2C[C@@H]3C(=O)OC(=O)[C@@H]3c3c2c2ccccc2n3C)cc1

>  <label value>
inactive

$$$$
>  <compound>
CN1C(=O)C(=O)c2cc3c(c4c2c1cc1ccccc14)OCO3 [CEPHARADIONE A]

>  <label value>
inactive

$$$$
>  <compound>
CC(C)c1cccc(=O)c(O)c1 [HINOKITIOL]

>  <label value>
inactive

$$$$
>  <compound>
COc1ccc(-c2onc(-c3ccc([N+](=O)[O-])cc3)c2C2=NCCCN2)cc1

>  <label value>
inactive

$$$$
>  <compound>
CCCCC1(C2c3ccccc3Oc3ccccc32)C(=O)N(c2ccccc2)N(c2ccccc2)C1=O

>  <label value>
inactive

$$$$
>  <compound>
COC(=O)C(C(=O)OC)C1CCCC(=O)C1 (stereo unspecified)

>  <label value>
inactive

$$$$
>  <compound>
CC(C)(C)NC(=O)C12C3C4C1C1C2C3C41I (stereo unspecified)

>  <label value>
inactive

$$$$
>  <compound>
C[C@]1(CO)CCC[C@@]2(C)C1CC[C@H]1CC3C[C@]12CC[C@]3(C)O (stereo partly specified)

>  <label value>
inactive

$$$$
>  <compound>
CC(C)(c1ccccc1)c1ccc(OC#N)cc1

>  <label value>
inactive

$$$$
>  <compound>
Cn1c(/C=C/CO)c(CO)c2c1C(=O)C=C(N1CC1)C2=O [APAZIQUONE]

>  <label value>
active

$$$$
